System: TK-10 renal
Assay: NCI tumour cell line growth inhibition, 48 h
Record form. Attribute: TGI. Fill in for each entry.

Item: COc1ccc(-c2[nH]c3c4c(nc5c(c24)C(=O)CC(C)(C)C5)CC(C)(C)C3)cc1 | System: TK-10 renal | TGI: > 100 µM

TGI on TK-10 renal for CCC(=O)NCC1CCCN2CCCCC12 (stereo not given) is > 100 µM

TK-10 renal assay, compound CC(=O)N(C(=O)CC(=O)N1N=C(c2ccccc2)C(N=Nc2ccccc2[N+](=O)[O-])C1=O)c1ccc(Cl)cc1 (stereo not given) , recorded TGI = > 10 µM

Field TGI (TK-10 renal), entry NC1(c2cc3ccccc3s2)CCCC1 : 85.7 µM

Query COc1ccc(CCN=C2NC(=O)/C(=C/c3ccc4ncccc4c3)S2)cc1 on TK-10 renal; TGI returned: > 25 µM
